Assay: clinical
Details: human, in vivo, 6 mg/m2, t1/2
measurement-kind: half-life

stdin: Which half-life reading was recorded for the molecule CC[C@@]1(O)C(=O)OCc2c1cc1n(c2=O)Cc2cc3c(CN(C)C)c(O)ccc3nc2-1 [Topotecan, reference compound] ?
stdout: 6.87 h

stdin: Which half-life reading was recorded for the molecule CC[C@@]1(OC(=O)[C@@H](C)O)C(=O)OCc2c1cc1n(c2=O)Cc2cc3c(CN(C)C)c(O)ccc3nc2-1 [TLC-U1, S,R-topotecan lactate] ?
stdout: 2.9 h

Next item in the queue.
stdin: Which half-life reading was recorded for the molecule CC[C@@]1(OC(=O)[C@H](C)O)C(=O)OCc2c1cc1n(c2=O)Cc2cc3c(CN(C)C)c(O)ccc3nc2-1 [TLC-U2, S,S-topotecan lactate] ?
stdout: 2.46 h

====

Test: clinical
Details: human, in vivo, 60 mg/m2, Tmax
measurement-kind: Tmax (min)
Respond with the bare value in min.

stdin: Which Tmax reading was recorded for the compound CC[C@@]1(OC(=O)[C@@H](C)O)C(=O)OCc2c1cc1n(c2=O)Cc2cc3c(CN(C)C)c(O)ccc3nc2-1 [TLC-U1, S,R-topotecan lactate] ?
stdout: 21.4

stdin: Which Tmax reading was recorded for the compound CC[C@@]1(O)C(=O)OCc2c1cc1n(c2=O)Cc2cc3c(CN(C)C)c(O)ccc3nc2-1 [Topotecan, reference compound] ?
stdout: 50.2

Next item in the queue.
stdin: Which Tmax reading was recorded for the compound CC[C@@]1(OC(=O)[C@H](C)O)C(=O)OCc2c1cc1n(c2=O)Cc2cc3c(CN(C)C)c(O)ccc3nc2-1 [TLC-U2, S,S-topotecan lactate] ?
stdout: 27

====

Assay: clinical
Settings: human, in vivo, 50 mg/m2
measurement-kind: half-life (h)
Respond with the bare value in h.

stdin: Which half-life reading was recorded for the compound CC[C@@]1(O)C(=O)OCc2c1cc1n(c2=O)Cc2cc3c(CN(C)C)c(O)ccc3nc2-1 [Topotecan, reference compound] ?
stdout: 5.51

====

Assay: clinical
Settings: human, in vivo, T1/2
measurement-kind: half-life

Solved cases (2 shown):
stdin: Which half-life reading was recorded for the molecule CC[C@@]1(O)C(=O)OCc2c1cc1n(c2=O)Cc2cc3c(CN(C)C)c(O)ccc3nc2-1 [Topotecan, reference compound] ?
stdout: > 2.5 h

stdin: Which half-life reading was recorded for the molecule CC[C@@]1(OC(=O)[C@H](C)O)C(=O)OCc2c1cc1n(c2=O)Cc2cc3c(CN(C)C)c(O)ccc3nc2-1 [TLC-U2, S,S-topotecan lactate] ?
stdout: > 2.5 h

More entries:
stdin: Which half-life reading was recorded for the molecule CC[C@@]1(OC(=O)[C@@H](C)O)C(=O)OCc2c1cc1n(c2=O)Cc2cc3c(CN(C)C)c(O)ccc3nc2-1 [TLC-U1, S,R-topotecan lactate] ?
stdout: > 2.5 h

====

Assay: clinical
Conditions: human, in vivo, 1.5 mg/m2, t1/2
measurement-kind: half-life
In your response, put the unit directly after the numeric value.

Solved cases (2 shown):
stdin: Which half-life reading was recorded for the compound CC[C@@]1(OC(=O)[C@H](C)O)C(=O)OCc2c1cc1n(c2=O)Cc2cc3c(CN(C)C)c(O)ccc3nc2-1 [TLC-U2, S,S-topotecan lactate] ?
stdout: 2.31 h

stdin: Which half-life reading was recorded for the compound CC[C@@]1(O)C(=O)OCc2c1cc1n(c2=O)Cc2cc3c(CN(C)C)c(O)ccc3nc2-1 [Topotecan, reference compound] ?
stdout: 4.76 h

Next item in the queue.
stdin: Which half-life reading was recorded for the compound CC[C@@]1(OC(=O)[C@@H](C)O)C(=O)OCc2c1cc1n(c2=O)Cc2cc3c(CN(C)C)c(O)ccc3nc2-1 [TLC-U1, S,R-topotecan lactate] ?
stdout: 2.79 h

The reported numbers originate from patent US20140135357A1.
